- tested-on: T1, ActRIIa receptor-Fc fusion (UniProt P27037 20-134, limits assumed)
- T1 construct: BMP receptor-Fc fusion used at 5 ug/mL
- protocol-description: ELISA-like plate assay, captured BMP-7 from conditioned media, receptor-Fc detection
measured-parameter: ActRIIa binding (relative to wild type = 1.0)

[
  {
    "binder": "BMP-7 variant Y44T (ligand, In conditioned media; numbering on mature BMP-7) STGGKQRSQNRSKTPKNQEALRMASVAENSSSDQRQACKKHELTVSFRDLGWQDWIIAPEGYAAYYCEGECAFPLNSYMNATNHAIVQTLVHFINPETVPKPCCAPTQLNAISVLYFDDSSNVILKKYRNMVVRACGCH",
    "reported": "0.36 relative to wild type"
  },
  {
    "binder": "BMP-7 variant F93G (ligand, In conditioned media; numbering on mature BMP-7) STGGKQRSQNRSKTPKNQEALRMASVAENSSSDQRQACKKHELYVSFRDLGWQDWIIAPEGYAAYYCEGECAFPLNSYMNATNHAIVQTLVHGINPETVPKPCCAPTQLNAISVLYFDDSSNVILKKYRNMVVRACGCH",
    "reported": "0.63 relative to wild type"
  },
  {
    "binder": "BMP-7 variant I86E (ligand, In conditioned media; numbering on mature BMP-7) STGGKQRSQNRSKTPKNQEALRMASVAENSSSDQRQACKKHELYVSFRDLGWQDWIIAPEGYAAYYCEGECAFPLNSYMNATNHAEVQTLVHFINPETVPKPCCAPTQLNAISVLYFDDSSNVILKKYRNMVVRACGCH",
    "reported": "1 relative to wild type"
  },
  {
    "binder": "BMP-7 variant R134K (ligand, In conditioned media; numbering on mature BMP-7) STGGKQRSQNRSKTPKNQEALRMASVAENSSSDQRQACKKHELYVSFRDLGWQDWIIAPEGYAAYYCEGECAFPLNSYMNATNHAIVQTLVHFINPETVPKPCCAPTQLNAISVLYFDDSSNVILKKYRNMVVKACGCH",
    "reported": "1.18 relative to wild type"
  },
  {
    "binder": "BMP-7 variant F73D (ligand, In conditioned media; numbering on mature BMP-7) STGGKQRSQNRSKTPKNQEALRMASVAENSSSDQRQACKKHELYVSFRDLGWQDWIIAPEGYAAYYCEGECADPLNSYMNATNHAIVQTLVHFINPETVPKPCCAPTQLNAISVLYFDDSSNVILKKYRNMVVRACGCH",
    "reported": "2.5 relative to wild type"
  }
]

stdin: Tell me the measured ActRIIa binding (relative to wild type = 1.0) of BMP-7 variant W55R (ligand, In conditioned media; numbering on mature BMP-7) STGGKQRSQNRSKTPKNQEALRMASVAENSSSDQRQACKKHELYVSFRDLGWQDRIIAPEGYAAYYCEGECAFPLNSYMNATNHAIVQTLVHFINPETVPKPCCAPTQLNAISVLYFDDSSNVILKKYRNMVVRACGCH , please.
stdout: 1.2 relative to wild type

stdin: Tell me the measured ActRIIa binding (relative to wild type = 1.0) of BMP-7 variant Y78R (ligand, In conditioned media; numbering on mature BMP-7) STGGKQRSQNRSKTPKNQEALRMASVAENSSSDQRQACKKHELYVSFRDLGWQDWIIAPEGYAAYYCEGECAFPLNSRMNATNHAIVQTLVHFINPETVPKPCCAPTQLNAISVLYFDDSSNVILKKYRNMVVRACGCH , please.
stdout: 2.26 relative to wild type
